The following compounds are shown together with reported inhibition values.
tested on: Nicotinate-nucleotide adenylyltransferase NadD (Staphylococcus aureus N315); assay: inhibitors of S. aureus NadD, primary screen, biochemical, colorimetric, uHTS (AID 602399); details: purified NadD enzyme, colorimetric absorbance read-out; at 20 µM; hits give high values
Out of some 360,000 compounds screened, about 2,800 (0.78%) were called active. The sample holds actives, similar compounds and a random draw of the others, so the mix is not that of the screen.

>  <compound>
CSCC[C@H](NC(=O)NCCc1ccc(F)cc1)C(=O)O

>  <experimentalSystem>
Nicotinate-nucleotide adenylyltransferase NadD (Staphylococcus aureus N315)

>  <inhibition>
-3.24% (inactive)

$$$$
>  <compound>
CC1(Oc2cccc(F)c2)CCN(Cc2ccccc2OC(F)F)C1 (stereo unspecified)

>  <experimentalSystem>
Nicotinate-nucleotide adenylyltransferase NadD (Staphylococcus aureus N315)

>  <inhibition>
-4.85% (inactive)

$$$$
>  <compound>
CCC1CCc2c(sc(NC(C)=O)c2C#N)C1 (stereo unspecified)

>  <experimentalSystem>
Nicotinate-nucleotide adenylyltransferase NadD (Staphylococcus aureus N315)

>  <inhibition>
1.07% (inactive)

$$$$
>  <compound>
COc1cccc(CN(C)CC(=O)Nc2sc3c(c2C#N)CCC3)c1

>  <experimentalSystem>
Nicotinate-nucleotide adenylyltransferase NadD (Staphylococcus aureus N315)

>  <inhibition>
-5.48% (inactive)

$$$$
>  <compound>
O=c1[nH]c(CCl)nc2cc(-c3ccc(Cl)cc3)sc12

>  <experimentalSystem>
Nicotinate-nucleotide adenylyltransferase NadD (Staphylococcus aureus N315)

>  <inhibition>
1.98% (inactive)

$$$$

Query: Which inhibition is reported for this compound? COc1ccc(C(=O)N2CCCCC2c2cc(C(=O)Nc3ccc(F)c(Cl)c3)no2)cc1 (stereo unspecified)
Result: 2.01% (inactive)

Query: What do you get for COC(=O)c1ccc(S(=O)(=O)N(CCO)Cc2ccccc2)n1C ?
Result: -0.726% (inactive)

Query: What do you get for CCOc1ccc(NS(=O)(=O)c2ccc(C(=O)NCC3CCCO3)cc2)cc1 (stereo unspecified) ?
Result: -1.46% (inactive)

Query: What do you get for Cc1cc(C)c(C2C3=C(Nc4c2c(C)nn4-c2ccccn2)c2ccccc2C3=O)c(C)c1 (stereo unspecified) ?
Result: 33.2% (active)

Query: What do you get for O=C(COC(=O)c1cc(S(=O)(=O)N2CCOCC2)ccc1F)NC1CC1 ?
Result: -7.35% (inactive)

Query: What do you get for Cc1ccccc1NC(=O)c1ccc(COc2ccc3c(C)cc(=O)oc3c2)cc1 ?
Result: 1.94% (inactive)

====

test system: Nicotinate-nucleotide adenylyltransferase NadD (Staphylococcus aureus N315); assay: inhibitors of S. aureus NadD, primary screen, biochemical, colorimetric, uHTS (AID 602399); conditions: purified NadD enzyme, colorimetric absorbance read-out; at 20 µM
In all, about 360,000 compounds went through this assay and about 2,800 (0.78%) were called active. No stated cut-off is given here; in the data, active means inhibition above about 26%; inactive means the rest. This is one part of a sample in which actives are shown more often than they occur.
// allowed return values: Yes for active, No for inactive

Please review the entries below; each comes with its answer.
>  <compound>
Cn1c(=O)[nH]c(=O)c2c1nc(CN1CCN(c3ccccc3F)CC1)n2CCc1ccccc1

>  <experimentalSystem>
Nicotinate-nucleotide adenylyltransferase NadD (Staphylococcus aureus N315)

>  <assignedLabel>
No

$$$$
>  <compound>
Cc1cc(C(=O)CSc2nc(N)cc(=O)[nH]2)c(C)n1-c1cccc(F)c1

>  <experimentalSystem>
Nicotinate-nucleotide adenylyltransferase NadD (Staphylococcus aureus N315)

>  <assignedLabel>
No

$$$$
>  <compound>
Cc1ccc(Cl)cc1NC(=O)C1CCN(S(C)(=O)=O)CC1

>  <experimentalSystem>
Nicotinate-nucleotide adenylyltransferase NadD (Staphylococcus aureus N315)

>  <assignedLabel>
No

$$$$
>  <compound>
COc1ccc(S(=O)(=O)NCc2cccnc2)cc1NC(=O)c1ccc(C)cc1

>  <experimentalSystem>
Nicotinate-nucleotide adenylyltransferase NadD (Staphylococcus aureus N315)

>  <assignedLabel>
No

$$$$

Query: Look up the recorded call for CC(=O)Nc1ccc(S(=O)(=O)N2CCN(S(=O)(=O)c3cccs3)CC2)cc1 in this test.
Result: No

Query: What do you get for O=C(CSc1nc2ccccc2c(=O)[nH]1)Nc1nc(-c2ccc(Br)cc2)cs1 ?
Result: Yes

Query: What do you get for CC(C)c1c(C(=O)N/N=C/c2ccccc2C(=O)O)nnn1-c1nonc1N ?
Result: No

Query: What do you get for COc1cc(-c2noc(C3CCCN(S(=O)(=O)c4cccc(Cl)c4)C3)n2)cc(OC)c1OC (centres undefined) ?
Result: No

Query: What do you get for C=CCN1C(=O)C(O)(CC(=O)c2ccccn2)c2ccccc21 (centres undefined) ?
Result: No

Query: What do you get for O=C(OCc1nnc(-c2ccccc2)o1)c1cc(=O)[nH]c2ccccc12 ?
Result: No

Query: What do you get for CCOc1ccc(NC(=O)CCNC(=O)c2ccc(Br)cc2)cc1 ?
Result: No

Query: What do you get for CCOC(=O)[C@]12CCCC=C1N(Cc1ccc(Cl)cc1Cl)C(=O)[C@H](CC(=O)N1CCCCC1)C2 ?
Result: No

Query: What do you get for CN(C)Cc1c(C(=O)N/N=C/c2ccccc2OCc2ccc(F)cc2)nnn1-c1nonc1N ?
Result: No

Query: What do you get for CCOc1cc(/C=N/NC(=O)c2c(C)nc3ccc(Cl)cn23)ccc1O ?
Result: No

Query: What do you get for O=C(COC(=O)c1cc(=O)[nH]c2ccccc12)Nc1nc(-c2cccc(Br)c2)cs1 ?
Result: Yes

Query: What do you get for CS(=O)(=O)N(CC(=O)N1CCCCCC1)c1cccc(Cl)c1Cl ?
Result: No

Query: What do you get for CCOCCCNC(=O)Cc1cc(=O)[nH]c(=O)[nH]1 ?
Result: No

Query: What do you get for CC(C)[C@@H]1NC(=O)c2cc([N+](=O)[O-])cc(I)c2NCCC[C@@H](C(=O)NC(CC(=O)O)C(N)=O)NC(=O)[C@H](CO)NC1=O (some centres undefined) ?
Result: No

Query: What do you get for Cc1cc(C(=O)CSc2nc(N)cc(=O)[nH]2)c(C)n1CCc1ccc(Cl)cc1 ?
Result: Yes

Query: What do you get for O=[N+]([O-])c1ccc(Oc2ccc(F)cc2Br)c2ccncc12 ?
Result: No

Query: What do you get for C#CCOCCOCCOCCNc1nc(N2CCN(C(=O)CCCCCCCCCCNC(=O)Cn3cc(CCCCCN)nn3)CC2)nc(N2CCN(C(=O)CCCCCCCCCCNC(=O)[C@H](CO)n3cc(CCCSC)nn3)CC2)n1 ?
Result: Yes

Query: What do you get for N#Cc1ccc(CSc2ncccn2)cc1 ?
Result: No

====

test system: Nicotinate-nucleotide adenylyltransferase NadD (Staphylococcus aureus N315); assay: inhibitors of S. aureus NadD, primary screen, biochemical, colorimetric, uHTS (AID 602399); conditions: purified NadD enzyme, colorimetric absorbance read-out; at 20 µM; hits give high values
Screen size: about 360,000 compounds; about 2,800 (0.78%) were called active. Many of the other results were omitted from the sample, so actives are more common in it than they were.
The following compounds are shown together with reported inhibition values.
Field format: number, assumed %, no unit text.

>  <compound>
CCCCCCCC1(C)NC(=O)N(CC(=O)Nc2cc(C)on2)C1=O (stereo not given)

>  <assayValue>
-7.34

$$$$
>  <compound>
C[C@H](CO)N1C[C@H](C)[C@H](CN(C)C(=O)Nc2ccc(C(F)(F)F)cc2)Oc2c(NC(=O)c3ccncc3)cccc2C1=O

>  <assayValue>
34

$$$$
>  <compound>
O=C(CSc1nc(Nc2ccccc2)nc(N2CCOCC2)n1)Nc1cc(Cl)ccc1O

>  <assayValue>
37.7

$$$$

Moving on to the next compound.
Query: Which inhibition is reported for this compound? Cc1cc(Cl)ccc1NNC(=O)c1snnc1C
Result: 1.86

====

tested on: Nicotinate-nucleotide adenylyltransferase NadD (Staphylococcus aureus N315); assay: inhibitors of S. aureus NadD, primary screen, biochemical, colorimetric, uHTS (AID 602399); conditions: purified NadD enzyme, colorimetric absorbance read-out; at 20 µM
Hit rate of the full screen: of about 360,000 compounds, about 2,800 (0.78%) were called active. Cut-off read from the data, not from the text of the source: active = inhibition above about 26%; inactive = the rest. Many of the other results were omitted from the sample, so actives are more common in it than they were.
// allowed return values: active, inactive

>  <molecule>
CN(c1ccccn1)c1ncnc2[nH]ncc12

>  <assignedLabel>
inactive

$$$$
>  <molecule>
Nc1nc2n(n1)C(c1ccco1)CC(c1ccc(Cl)c(Cl)c1)N2 (stereo unspecified)

>  <assignedLabel>
active

$$$$
>  <molecule>
CC(C)C(=O)Nc1c2c(nn1-c1ccccc1)CSC2

>  <assignedLabel>
inactive

$$$$
>  <molecule>
Cc1ccc(C2CC(c3cccc(Br)c3)n3nc(N)nc3N2)cc1 (stereo unspecified)

>  <assignedLabel>
inactive

$$$$
>  <molecule>
Clc1ccc(-c2cc(C3CCNCC3)[nH]n2)c(Cl)c1

>  <assignedLabel>
inactive

$$$$

Query: Look up the recorded call for CCOc1ccccc1C1CC(c2ccc(Cl)cc2)Nc2nc(N)nn21 (stereo unspecified) in this test.
Result: inactive
